Value source: paper PMC11992225

Test system: intracellular S. flexneri 5a M90T in TC7 cells
assayName: microbe, parasite or virus in culture
Format: cell-based, Shigella flexneri
statedConditions: TC7 cells infected with GFP-expressing S. flexneri, 14 h treatment, 4 x MIC
Fluorescence intensity (RFU), Mean, 4 x MIC of 3000 RFU or higher: t. Under 3000 RFU: f.

compound=N[C@@H]1CN(c2c(F)cc3c(=O)c(C(=O)O)cn([C@@H]4C[C@@H]4F)c3c2Cl)CC12CC2 categorylabel=t

Tell me whether Fluorescence intensity (RFU), Mean, 4 x MIC is at least 3000 RFU here: NC1CCN(c2nc3c(cc2F)c(=O)c(C(=O)O)cn3-c2ccc(F)cc2F)C1 (centres unmarked)
t

Tell me whether Fluorescence intensity (RFU), Mean, 4 x MIC is at least 3000 RFU here: CO[C@@]12[C@H](COC(N)=O)C3=C(C(=O)C(C)=C(N)C3=O)N1C[C@@H]1N[C@@H]12
f

Tell me whether Fluorescence intensity (RFU), Mean, 4 x MIC is at least 3000 RFU here: Cc1oc(=O)oc1CN1CCN(c2cc3c(cc2F)c(=O)c(C(=O)O)c2n3C(C)S2)CC1 (centres unmarked)
t

Tell me whether Fluorescence intensity (RFU), Mean, 4 x MIC is at least 3000 RFU here: CN1CCN(c2cc3c(cc2F)c(=O)c(C(=O)O)cn3-c2ccc(F)cc2)CC1
f
